# Test system: OSR1
# Construct: gene OXSR1
# details: concentration: 1 μM, replicates: in singlicate; n = 1;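 also: KINOMEscan kinase panel screen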
valueType: %Inh (%)
Give bare numbers, in %.

Example entries and their recorded answers appear below.
>>> df
                                   molecule  valuetype  valuemeasured
0  CC(=O)Nc1ccc(COc2ccc(Nc3ccnc4cc(-c5ccccn5)ccc34)cc2)cc1.Cl [GW440148]       %Inh              0
1  O=C(Nc1cccc(-c2nn3ncccc3c2-c2ccnc(Nc3cccc(C(F)(F)F)c3)n2)c1)c1c(F)cccc1F [GSK299495]       %Inh             23
2             CCn1cnc2c(N)ncnc21 [GW345098]       %Inh              0
3  Cc1cccc(-c2nc(Nc3ccc4ncsc4c3)c3ccccc3n2)n1 [GW867588]       %Inh              0

Please report %Inh for every entry that follows.
1. CC(C)Oc1ccc2c(-c3ccnc(Nc4ccc(N5CCN(C)CC5)cc4)n3)cnn2n1 [GW696155]
2. NS(=O)(=O)c1cccc(-c2ccc3nccc(-c4cccc(S(N)(=O)=O)c4)c3c2)c1 [GW867253]
3. Cn1ccc2ncnc(Oc3ccc(NC(=O)Nc4ccncc4)c(Cl)c3)c21

Reply:
[87, 0, 0]

Please report %Inh for every entry that follows.
1. CN(C1=C(c2ccccc2)C(=O)NC1=O)c1ccccc1 [SB-334860]
2. Cc1nnc(-c2ccc(C)c(-c3ccc(C(=O)Nc4ccc(NS(C)(=O)=O)cc4)cc3)c2)o1 [GW702865]

Reply:
[4, 0]

###

# System: MAP4K3
# details: concentration: 1 μM, replicates: in singlicate; n = 1
Record form. Attribute: %Inh. Fill in for each entry.
Answers are plain numbers, in %.

>>> df
                                   compound  valuemeasured
0  c1ccc(-c2n[nH]cc2-c2ccnc3ccccc23)nc1 [GW271431]             16

Please report %Inh for every entry that follows.
1. CCn1cnc2c(N)ncnc21 [GW345098]
2. COc1ccc(Nc2nccc(N3CCC(NC(=O)Nc4cc(C)ccc4C)C3)n2)cc1 (stereo not shown) [GSK1379741]
3. O=c1cc(N2CCOCC2)nc2n(Cc3cccc(C(F)(F)F)c3)ccn12 [GSK2297543]

Reply:
1. 1
2. 0
3. 0

Please report %Inh for every entry that follows.
1. COc1ccc(Nc2nccc(N3CCC(NC(=O)Nc4cccc(C(C)=O)c4)C3)n2)cc1 (stereo not shown) [GSK1379731]
2. CC(C)(C)n1cnc2c(N)ncnc21 [SKF-97359]
3. Cl.Nc1ncnc2occ(-c3ccc(NC(=O)Nc4cc(C(F)(F)F)ccc4F)cc3)c12 [SB-707548]
4. CCc1nc(-c2cccc(C)c2)c(-c2ccnc(NCc3ccccc3)c2)s1
5. CN(C1=C(c2ccccc2)C(=O)NC1=O)c1ccccc1 [SB-334860]

Reply:
[0, 0, 77, 0, 8]

Record Cc1nnc(-c2ccc3ncc(-c4ccc(S(C)=O)cc4)n3c2)o1 (stereo not shown) . Reported %Inh: 0

###

# Test system: CDC2L5
# Construct: gene CDK13
# details: concentration: 1 μM, replicates: in singlicate; n = 1
valueType: %Inh (%)
One number for each entry, in %.

In [3]: df
Out[3]:
                                   compound  testedsystem  valuemeasured
0  Cc1cccc(-c2nc(-c3ccc(S(C)(=O)=O)cc3)sc2-c2ccncc2)c1        CDC2L5              9

Please report %Inh for every entry that follows.
1. O=c1cc(N2CCOCC2)nc2n(Cc3cccc(C(F)(F)F)c3)ccn12
2. COc1ccc(Nc2ncc(C#N)c(Nc3ccccc3C(N)=O)n2)cc1N1CCN(C)CC1.Cl
3. O=C(NCCCN1CCOCC1)c1cccc(Nc2nccc(Nc3ccc(Oc4ccccc4)cc3)n2)c1

Reply:
1. 0
2. 69
3. 0
